Just for reference, patent US20240174693A1 is where these values come from.

- Method: in vitro
- Condition Description: rat, hepatocytes
The reader will find reported CLint scaled at 1 μM values listed item by item below.

{"Compound": "CC(C)(NC(=O)[C@H]1[C@@H]2CNC[C@H]1C2)c1ncc2c(Br)cccn12 [Compound 8]", "CLint scaled at 1 μM": "6.01 mL/min/kg"}
{"Compound": "CC(C)(NC(=O)[C@H]1[C@@H]2CNC[C@H]1C2)c1ncc2c(Cl)cccn12 [Compound 7]", "CLint scaled at 1 μM": "5.4 mL/min/kg"}

###

Recorded pIC50 values (CYP2C9 (Homo sapiens, UniProt P11712)) are given below.
pIC50: −log10 of the molar value.

{"Chemical String": "CC(C)(NC(=O)[C@H]1[C@@H]2CNC[C@H]1C2)c1ncc2c(Br)cccn12", "Assayed Target": "CYP2C9 (Homo sapiens, UniProt P11712)", "pIC50": "< 5.00"}
{"Chemical String": "CC(C)(NC(=O)[C@H]1[C@@H]2CNC[C@H]1C2)c1ncc2c(Cl)cccn12", "Assayed Target": "CYP2C9 (Homo sapiens, UniProt P11712)", "pIC50": "< 5.00"}
{"Chemical String": "CC(C)(NC(=O)[C@H]1[C@@H]2CNC[C@H]1C2)c1nc(C2CC2)c2ccccn12", "Assayed Target": "CYP2C9 (Homo sapiens, UniProt P11712)", "pIC50": "< 5.00"}
